# credit: patent US5288872A

Quick reference for Ki among some compounds
Biological target: nicotinic receptors
Assay: Inhibition of L-[^3 H] nicotine binding to mouse brain membrane preparations
Conditions: mouse brain membranes, 2 hr. incubation at 4° C., pH 7.5, racemic mixture of ligand
Method: Mice (DBA strain) were maintained on a 12 hour light/dark cycle and were allowed free access to water and food supplied by Wayne Lab Blox, Madison, Wis. Animals used in the present studies were 60 to 90 days of age and weighed 20 to 25 g. […] Mice were killed by cervical dislocation. […] Protein was determined by the method of Lowry, et al., J. Biol. Chem., Vol. 193, pp. 265-275 (1951), using bovine serum albumin as the standard. […]
readout.type: Ki (nM)

1) CC(=O)C1=CCC2CCC1N2C (centres unmarked) [Ferruginine, ferruginine]    3100
2) CC(=O)C1=CCC2CCC1N2 (centres unmarked) [Norferruginine, norferruginine]    1100
